# TEST: Primary qHTS for delayed death inhibitors of the malarial parasite plastid, 96 hour incubation; note: potency is the fitted concentration of half-maximal effect
# EXPERIMENTAL CONDITIONS: P. falciparum luciferase reporter growth; series mostly up to 28.7 µM
Out of some 320,000 compounds screened, about 22,000 (6.9%) were called active. Another 27% or so got no clear call; they are omitted. This is one part of a sample in which actives are shown more often than they occur.
REPORTED ENDPOINT: Potency

Example results:
>  <COMPOUND>
COC(=O)COc1ccc2c(c1C)O/C(=C\c1ccco1)C2=O

>  <Potency>
inactive

$$$$
>  <COMPOUND>
O=C(NCCCN1CCCCCC1)c1ccc(N2CCCC2=O)cc1

>  <Potency>
2.33 µM (active)

$$$$
>  <COMPOUND>
CCOc1ccc(N/C=C/C(=O)c2ccccc2)cc1

>  <Potency>
inactive

$$$$
>  <COMPOUND>
O=C(O)c1ccccc1CSc1nc2ccccc2s1

>  <Potency>
inactive

$$$$
>  <COMPOUND>
CCOCCCNC(=O)c1cc2c(=O)n3ccccc3nc2s1

>  <Potency>
10.4 µM (active)

$$$$
>  <COMPOUND>
NC(=O)COc1ccccc1C(=O)NC12CC3CC(CC(C3)C1)C2

>  <Potency>
inactive

$$$$

Req: # return recorded Potency for entry COCCNC(=O)COc1ccc(C)c(C)c1
Resp: inactive

Req: # return recorded Potency for entry CCc1ccc(NC(=O)CSc2nc3ccccc3c(=O)n2CCN2CCOCC2)cc1
Resp: inactive

Req: # return recorded Potency for entry COc1ccc(OCC(=O)Nc2ccc(NC(=O)c3ccco3)c(C)c2)cc1
Resp: inactive

Req: # return recorded Potency for entry COc1ccc(CCNC(=O)COC(=O)C2CCCCC2)cc1
Resp: inactive

Req: # return recorded Potency for entry COc1cc(SC)ccc1C(=O)NCCOc1ccccc1Cl
Resp: 0.738 µM (active)

Req: # return recorded Potency for entry COc1ccc(NC(=O)CSc2nc3ccccc3c(=O)n2C)cc1
Resp: 1.85 µM (active)

Req: # return recorded Potency for entry CC(C)Cn1c(=O)c2ccccc2n2c(CCC(=O)NCc3ccccn3)nnc12
Resp: 13.1 µM (active)

Req: # return recorded Potency for entry FC(F)(F)Oc1ccc(-c2cn3cccnc3n2)cc1
Resp: inactive

Req: # return recorded Potency for entry COc1ccc(NC(=O)CCCC2CCCCC2)c(OC)c1
Resp: inactive

Req: # return recorded Potency for entry C=CCSc1ccc(S(=O)(=O)N2CCN(C)CC2)cn1
Resp: inactive

Req: # return recorded Potency for entry COc1ccc(NS(=O)(=O)c2ccc(Oc3c(C#N)cccc3C#N)cc2)cc1
Resp: inactive

Req: # return recorded Potency for entry COC(=O)c1ccc(S(=O)(=O)NCc2ccccc2)n1C
Resp: inactive

Req: # return recorded Potency for entry O=C(COC(=O)Cn1[nH]c(=O)c2ccccc2c1=O)Nc1c(Cl)cccc1C(F)(F)F
Resp: inactive

Req: # return recorded Potency for entry COc1ccc(NC(C(=O)Nc2cccc(C(C)=O)c2)c2ccccc2)cc1 (stereo unspecified)
Resp: inactive

Req: # return recorded Potency for entry COc1ccc(C(=O)Nc2cc(C)c(NC(=O)c3ccccc3OC)cn2)cc1
Resp: inactive

Req: # return recorded Potency for entry Cc1ccc(OCC(=O)Nc2ccc(N3CCN(C(=O)c4ccco4)CC3)cc2)c(C)c1
Resp: inactive

Req: # return recorded Potency for entry CCOc1ccc(/C=C/C(=O)N(CC)CC(=O)NCc2cccs2)cc1OC
Resp: inactive

Req: # return recorded Potency for entry CN1C(=O)c2ccc(C(=O)Nc3ccc(Br)cn3)cc2C1=O
Resp: inactive

----------
# TEST: Primary qHTS for delayed death inhibitors of the malarial parasite plastid, 96 hour incubation
# EXPERIMENTAL CONDITIONS: P. falciparum luciferase reporter growth; series mostly up to 28.7 µM
In all, about 320,000 compounds went through this assay and about 22,000 (6.9%) were called active. Roughly 27% stayed inconclusive and do not appear here. Calls come from the whole dose curve; as a rule, active = well fitted inhibition curve with a large enough effect; inconclusive = small, poorly fitted or top-dose-only effect, or another doubt; inactive = no such curve, though single readings can be large or run the other way. The sample holds actives, similar compounds and a random draw of the others, so the mix is not that of the screen.
Form entry, call: pick from active, inactive

Req: Tell me the recorded outcome of this test for O=C1CCN(CCCc2ccccc2)CCN1CCO .
Resp: inactive

Req: Tell me the recorded outcome of this test for COc1ccc(CNC(=O)CSc2n[nH]c(N)n2)cc1OC .
Resp: inactive

Req: Tell me the recorded outcome of this test for Cc1cc(NC(=O)c2ccccc2C)no1 .
Resp: inactive

Req: Tell me the recorded outcome of this test for O=C(CSC1=Nc2ccccc2C2=NC(c3ccccc3)C(=O)N12)NCC1CCCO1 (configuration not stated) .
Resp: active

Req: Tell me the recorded outcome of this test for COc1ccc(C(C#N)(CC(=O)O)c2cnccn2)cc1OC (configuration not stated) .
Resp: inactive

Req: Tell me the recorded outcome of this test for O=C(Nc1cccc(C(F)(F)F)c1)c1cnccn1 .
Resp: inactive

Req: Tell me the recorded outcome of this test for O=S(=O)(NCCS(=O)(=O)N1CCN(c2ccccc2)CC1)c1ccc(F)cc1 .
Resp: inactive

Req: Tell me the recorded outcome of this test for COc1ccc(C(=O)OCC(=O)NCCCc2ccccc2)cc1OC .
Resp: inactive

Req: Tell me the recorded outcome of this test for COc1cc(NC(=O)C2=CC(c3ccc(C)cc3)=NS(=O)(=O)N2C)cc(OC)c1OC .
Resp: inactive

Req: Tell me the recorded outcome of this test for O=C(c1c(F)cccc1F)N1CCN(S(=O)(=O)c2ccc3c(c2)OCCO3)CC1 .
Resp: inactive

Req: Tell me the recorded outcome of this test for CCOc1ccc(C(CCc2ccccc2)NC(=O)c2ccc(OC)c(OC)c2)cc1OCC (configuration not stated) .
Resp: active

Req: Tell me the recorded outcome of this test for O=C(/C=C/Nc1ccc(S(=O)(=O)Nc2cnc3ccccc3n2)cc1)c1cccnc1 .
Resp: inactive

Req: Tell me the recorded outcome of this test for CCOC(=O)c1ccccc1NC(=O)COC(=O)CCC(=O)N1CCOCC1 .
Resp: inactive

Req: Tell me the recorded outcome of this test for CNc1nc(SC)nc(N(C#N)CC(=O)OC)n1 .
Resp: active

Req: Tell me the recorded outcome of this test for CC(=O)N1CCC(N(C(=O)Nc2ccc(Cl)cc2)C(C)C)CC1 .
Resp: inactive

Req: Tell me the recorded outcome of this test for COc1ccc(N2CCN(C(=O)CSc3nc4cc(OC)c(OC)cc4cc3C#N)CC2)cc1 .
Resp: inactive

Req: Tell me the recorded outcome of this test for O=[N+]([O-])c1ccc(NC(=S)N2CCN(c3ccccn3)CC2)cc1 .
Resp: inactive

Req: Tell me the recorded outcome of this test for COc1ccc(CCNC(=O)CSc2nc(C)nc3c2oc2ccccc23)cc1OC .
Resp: active

Req: Tell me the recorded outcome of this test for CCOc1ccc(C(CC(=O)O)NC(=O)C23CC4CC(CC(C4)C2)C3)cc1OC (configuration not stated) .
Resp: inactive

Req: Tell me the recorded outcome of this test for COc1ccc(NC(=O)CN(C)CC(=O)Nc2cccc(C(F)(F)F)c2)cc1 .
Resp: inactive

Req: Tell me the recorded outcome of this test for CC1CCCCN1S(=O)(=O)CCNC(=O)c1ccccc1 (configuration not stated) .
Resp: inactive

Req: Tell me the recorded outcome of this test for COc1cc(NC(=O)c2cncc(-c3ccc(C#N)cc3)c2)cc(C(=O)Nc2cccc(C(F)(F)F)c2)c1 .
Resp: active

----------
# TEST: Primary qHTS for delayed death inhibitors of the malarial parasite plastid, 96 hour incubation
# EXPERIMENTAL CONDITIONS: P. falciparum luciferase reporter growth; series mostly up to 28.7 µM
The campaign covered roughly 320,000 compounds. About 22,000 (6.9%) were called active. Roughly 27% stayed inconclusive and do not appear here. The call rests on the fitted dose curve; in most records, active means well fitted inhibition curve with a large enough effect; inconclusive means small, poorly fitted or top-dose-only effect, or another doubt; inactive means no such curve, though single readings can be large or run the other way. Only a selection was taken, and actives are over-represented in it overall.
Form entry, call: pick from 1 = active, 0 = inactive

Req: Tell me the recorded outcome of this test for CN(c1ccccc1)S(=O)(=O)c1cccc(NC(=O)Cc2c(F)cccc2Cl)c1 .
Resp: 1

Req: Tell me the recorded outcome of this test for O=C(c1cc(COc2ccc(F)c(F)c2)on1)N1CCOCC1 .
Resp: 0

Req: Tell me the recorded outcome of this test for O=C(O)c1ccc(NC(=O)c2ccc(COc3ccc(Cl)cc3)o2)cc1 .
Resp: 0

Req: Tell me the recorded outcome of this test for COc1ccc(C(=O)NCC(=O)N/N=C/c2cccnc2)cc1 .
Resp: 0

Req: Tell me the recorded outcome of this test for O=C(NCC1CCN(Cc2ccccc2Cl)CC1)Nc1cccc(Cl)c1 .
Resp: 1

Req: Tell me the recorded outcome of this test for Cc1ccccc1NC(=O)NCC1CCN(Cc2cccc(Cl)c2)CC1 .
Resp: 0

Req: Tell me the recorded outcome of this test for CCN(CC)c1ccc(NC(=O)c2ccc(=O)[nH]c2)cc1S(=O)(=O)Nc1ccc(OC)cc1 .
Resp: 1

Req: Tell me the recorded outcome of this test for COc1cc(C(=O)NCC2(c3ccccc3)CCCC2)ccc1OC(C)C .
Resp: 0

Req: Tell me the recorded outcome of this test for COc1ccc(C)cc1NC(=S)N1CCOCC1 .
Resp: 1

Req: Tell me the recorded outcome of this test for O=C(NCc1ccccc1Cl)C1CCN(c2ncnc3c2nc2n3CCCCC2)CC1 .
Resp: 0

Req: Tell me the recorded outcome of this test for Cc1csc(NC(=O)CSc2nnc(-c3cccnc3)o2)n1 .
Resp: 0

Req: Tell me the recorded outcome of this test for C=C(C)c1cccc(C(C)(C)NC(=O)NC2CCCC2)c1 .
Resp: 0

Req: Tell me the recorded outcome of this test for Cc1csc(NC(=O)C2CCN(S(=O)(=O)c3ccccc3)CC2)n1 .
Resp: 0

Req: Tell me the recorded outcome of this test for O=S(=O)(NC1CC2CCC1C2)c1ccc(Cl)cc1 (stereo not given) .
Resp: 0

Req: Tell me the recorded outcome of this test for COCCNc1ncnc2c1nc1n2CCCC1 .
Resp: 0

Req: Tell me the recorded outcome of this test for Cc1cc(C)cc(Oc2nc3c(C)cccn3c(=O)c2/C=C(\C#N)C(=O)NC2CCS(=O)(=O)C2)c1 (stereo not given) .
Resp: 1

Req: Tell me the recorded outcome of this test for Cc1cc(C)c(S(=O)(=O)c2cc(F)ccc2C)c(=O)[nH]1 .
Resp: 0

Req: Tell me the recorded outcome of this test for COc1ccc(N(C)C(=O)CCS(=O)(=O)c2cccc3nsnc23)cc1 .
Resp: 0

Req: Tell me the recorded outcome of this test for Cc1cccn2c(=O)c(/C=C(\C#N)C(N)=O)c(N3CCCCCC3)nc12 .
Resp: 0

Req: Tell me the recorded outcome of this test for CCN(CC)CCNC(=O)c1cc(S(C)(=O)=O)ccc1OC .
Resp: 0

Req: Tell me the recorded outcome of this test for CCCc1ccc(OCCNC(=O)c2ccccc2Br)cc1 .
Resp: 0

Req: Tell me the recorded outcome of this test for COc1ccc(CNC(=O)c2cc(=O)c3c(C)cc(C)cc3o2)cc1 .
Resp: 0

Req: Tell me the recorded outcome of this test for COc1ccccc1/C=C/C(=O)NC(=S)N1CCOCC1 .
Resp: 0

Req: Tell me the recorded outcome of this test for CCC(CC)COC(=O)C1=C(C)NC(=O)NC1c1ccc([N+](=O)[O-])cc1 (stereo not given) .
Resp: 1

Req: Tell me the recorded outcome of this test for O=C1NN(c2ccccc2)C(=O)/C1=C/c1ccc(-c2cccc(C(=O)O)c2)o1 .
Resp: 0

Req: Tell me the recorded outcome of this test for Cc1ccc(S(=O)(=O)N(C)CC(=O)NC2CCCC2)cc1 .
Resp: 0

Req: Tell me the recorded outcome of this test for COc1ccc(OC)c(NC(=O)c2ccc3c(c2)CCN3S(C)(=O)=O)c1 .
Resp: 0

Req: Tell me the recorded outcome of this test for CN(C(=O)c1cccc(OC2CCN(S(=O)(=O)N(C)C)CC2)c1)C1CCOC1 (stereo not given) .
Resp: 0

Req: Tell me the recorded outcome of this test for CCOC(=O)C1=C(C)NC(=O)NC1c1ccccc1 (stereo not given) .
Resp: 0

Req: Tell me the recorded outcome of this test for Cc1ccc(C)c(CN2CCC(CNC(=O)Nc3ccc(C)c(F)c3)CC2)c1 .
Resp: 0

Req: Tell me the recorded outcome of this test for NNC(=O)c1cccc(COCC(F)(F)C(F)F)c1 .
Resp: 0

Req: Tell me the recorded outcome of this test for COc1ccc(NS(=O)(=O)c2ccc(NC(=O)c3ccc(N(C)S(C)(=O)=O)cc3)cc2)cc1 .
Resp: 0

Req: Tell me the recorded outcome of this test for Cc1ccc(OCC(=O)Nc2ccccc2C(=O)NC2CC2)cc1 .
Resp: 0

Req: Tell me the recorded outcome of this test for CCCS(=O)(=O)N1CCC(CCOc2ccccc2)(C(=O)OCC)CC1 .
Resp: 0

Req: Tell me the recorded outcome of this test for CCCS(=O)(=O)Nc1ccc(-c2cn3c(n2)SCC3)cc1 .
Resp: 0

Req: Tell me the recorded outcome of this test for Cc1cc(=O)[nH]c(SCC(=O)Nc2ccc(Br)cc2)n1 .
Resp: 0

Req: Tell me the recorded outcome of this test for O=C(NCCCN1CCCCC1)C1CCCN(c2ncnc3c2nc2n3CCCCC2)C1 (stereo not given) .
Resp: 0

Req: Tell me the recorded outcome of this test for Cc1nn2c(NCCN(C)C)c3c(nc2c1-c1ccccc1)CCC3 .
Resp: 1

Req: Tell me the recorded outcome of this test for COc1ccc(OC)c(NC(=S)N2CCc3ccccc3C2)c1 .
Resp: 1

Req: Tell me the recorded outcome of this test for CCN(CC(=O)Nc1c(F)cccc1F)C(=O)c1ccc(S(=O)(=O)N2CCCCC2)cc1 .
Resp: 0

Req: Tell me the recorded outcome of this test for CN(Cc1ccccc1)C(=O)C1CCCN(c2ncnc3c2nc2n3CCCCC2)C1 (stereo not given) .
Resp: 1

Req: Tell me the recorded outcome of this test for Cc1cccc(CN2CCC(CNC(=O)Nc3ccc(F)c(Cl)c3)CC2)c1 .
Resp: 0

Req: Tell me the recorded outcome of this test for O=C(CSc1nnc(CNC(=O)c2ccc(F)cc2)o1)Nc1ccc2c(c1)OCO2 .
Resp: 0

Req: Tell me the recorded outcome of this test for Cc1cc(N2CCCC2)n2nc(C)c(-c3ccccc3)c2n1 .
Resp: 0

Req: Tell me the recorded outcome of this test for COc1cc(NC(=O)NCC2CCN(Cc3ccc(C)cc3)CC2)cc(OC)c1OC .
Resp: 1
